# Tested on: MDA-MB-231 breast
# test.method.notes: NCI-60 one-dose screen, 48 h (100 = growth as untreated, 0 = no growth, -100 = all killed)
# setup.conditions: 10 µM
Compounds without any hit were thinned out: in the full panel of roughly 83,000, 20% have a hit.
For each entry below, report its growth value.
The answer is to be given in %; state only the numeric part.

Input line: Given CC(C)OC(C(=O)O)c1ccccc1 (configuration not stated) , respond with its growth.
Output line: 99.3

Input line: Tell me its growth given CNC(=O)c1ccccc1CC1(O)c2ccccc2Oc2ccccc21 as the entry.
Output line: 66.3

Input line: Give growth for the following compound: COC(=O)c1ccccc1Br
Output line: 112

Input line: Supply growth value. Item: NC(=S)CN1CCOCC1
Output line: 106

Input line: Give the measured growth for O=S(=O)(Cc1ccccc1)c1ccccc1
Output line: 121

Input line: Return the recorded growth value; entry: CCN(CC)CCNc1ccc(CO)c2sc3ccccc3c(=O)c12
Output line: 50.1

Input line: Tell me growth reported for Cc1cccc([N+](=O)[O-])c1Cl
Output line: 113

###

Give growth for every item shown.
# Test system: HCT-116 colon
# test.method.notes: NCI-60 one-dose screen, 48 h (100 = growth as untreated, 0 = no growth, -100 = all killed)
# setup.conditions: 10 µM
About 83,000 compounds went through this panel and 20% of them were active in at least one assay; those are over-represented in the sample as a whole. Activity calls are given as the source filed them. How the source made its calls: active means growth percent below 10; inactive means the rest.

Input line: Identify measured growth corresponding to NC(=O)N/N=C\c1ccco1
Output line: 101% (inactive)

Input line: Indicate its recorded growth; the molecule in question is Cc1cc(N)ccc1-c1ccc(N)cc1C
Output line: 105% (inactive)

Input line: Provide measured growth value, entry: COc1cc(OC)c2ccc(=O)oc2c1
Output line: 109% (inactive)

Input line: Report growth, nothing else, for this molecule: O=[N+]([O-])c1ccc(Cl)c(S(=O)(=O)O)c1
Output line: 104% (inactive)

Input line: Identify measured growth corresponding to CC1(C)Nc2cccc3c(N=Nc4ccc(N=Nc5ccccc5)c5ccccc45)ccc(c23)N1
Output line: 70.5% (inactive)

Input line: Note down growth recorded for Nc1ccc(CC(=O)O)c(N)c1
Output line: 103% (inactive)

Input line: Tell me growth reported for C=CCOC(=O)C(=O)OCC=C
Output line: 101% (inactive)

Input line: Specify growth for CCOC(=O)C(CCC(C)C)C(=O)OCC and stop.
Output line: 108% (inactive)

###

# System: RXF 393 renal
# test.method.notes: NCI-60 one-dose screen, 48 h (100 = growth as untreated, 0 = no growth, -100 = all killed)
# setup.conditions: 10 µM
About 83,000 compounds went through this panel and 20% of them were active in at least one assay; those are over-represented in the sample as a whole.
value.kind: growth (%)
Output spec: scalar in %, unitless text.

Input line: // Input: COCCCNC(=O)c1nnn2c1nc(N)c1cc(Cl)ccc12 . Output its growth only.
Output line: 103

Input line: Give reported growth value for COc1ccccc1N1CCN(C(=S)Nc2ccccc2)CC1
Output line: 100

Input line: Note down growth recorded for O=C(Nc1ccccc1C(=O)NCC1CC1)c1cccs1
Output line: 98.9

Input line: Answer with the recorded growth for the compound listed here: Cc1cc(OCCO)cc(C)c1Cl
Output line: 134

Input line: State its growth: O=c1[nH]n(-c2ccccc2)c(=O)cc1Cl
Output line: 113

Input line: Item COc1cc(CN)ccc1O : provide growth
Output line: 95

Input line: Kindly indicate its recorded growth. Item: Brc1cnc2ccccc2c1
Output line: 121

Input line: Provide one value: measured growth of Cc1cc(O)ccc1O
Output line: 112

Input line: Determine from records and report growth for COc1cc2c(cc1O)CC[C@@H]1C2CC[C@@]2(C)C1CC[C@@H]2O (some centres not stated)
Output line: -4.44

Input line: Assign growth to the following record: O=C(c1ccc(O)cc1)c1ccc(O)cc1
Output line: 113

Input line: Consider the compound COc1cc(/C=C(\C#N)C(=O)c2ccccc2)ccc1OCc1ccccc1 . State its measured growth.
Output line: 100

Input line: State its growth: Cc1nc2ccccc2c(C(=O)O)c1O
Output line: 107

Hey, just so you know, these numbers are from PubChem BioAssay (NCI).
